# Tested on: SH-SY5Y
# test summary: Neuroprotective activity against NMDA-induced cell damage in human SH-SY5Y cells assessed as cell viability at 10 uM preincubated for 6 hrs followed by NMDA addition and measured after 30 mins by MTT assay (reference value: 58.7 +/- 2.3%)
# Assay type: functional
# condition set: read-out: Activity
Param label: returns label 1 when viability at 10 µM < 70%, returns label 0 otherwise, including exact equality.

molecule	cat
O=C(NCCCc1ccccc1)[C@@H]1CCC2=Nc3ccc(Br)cc3CN21	label 1
C[C@@H]([C@@H](O)c1ccc(O)cc1)N1CCC(Cc2ccccc2)CC1 [(S)-IFENPRODIL]	label 0
COc1ccc(CNC(=O)[C@@H]2CCC3=Nc4ccccc4CN32)cc1	label 0
COc1ccc(CCNC(=O)[C@@H]2CCC3=Nc4ccccc4CN32)cc1	label 0
O=C(NCCc1ccc(O)cc1)[C@H]1CCC2=Nc3ccc(Br)cc3CN21	label 0
O=C(NCc1ccc(F)cc1)[C@@H]1CCC2=Nc3ccccc3CN21	label 0
O=C(NCc1ccc(O)cc1)[C@H]1CCC2=Nc3ccc(Br)cc3CN21	label 1
O=C(NCc1ccc(F)cc1)[C@H]1CCC2=Nc3ccccc3CN21	label 0
COc1ccc(CNC(=O)[C@H]2CCC3=Nc4ccccc4CN32)cc1	label 0
O=C(NCCCc1ccccc1)[C@@H]1CCC2=Nc3ccccc3CN21	label 1
O=C(N[C@H](CO)Cc1ccccc1)[C@@H]1CCC2=Nc3ccccc3CN21	label 0
O=C(NCCc1c[nH]c2ccccc12)[C@@H]1CCC2=Nc3ccccc3CN21	label 0
COc1ccc(CNC(=N)[C@@H]2CCC3=Nc4ccccc4CN32)cc1	label 1
Cc1ccc(CNC(=O)[C@@H]2CCC3=Nc4ccccc4CN32)cc1	label 0
O=C(OCc1ccccc1)[C@@H]1CCC2=Nc3ccccc3CN21	label 1
O=C(NCCc1ccc(O)cc1)[C@@H]1CCC2=Nc3ccc(Br)cc3CN21	label 0
O=C(NCCc1ccc(O)cc1)[C@@H]1CCC2=Nc3ccccc3CN21	label 0
O=C(NCCc1ccccc1)[C@@H]1CCC2=Nc3ccccc3CN21	label 0
O=C(Nc1ccccc1)[C@@H]1CCC2=Nc3ccccc3CN21	label 1
O=C(NCc1ccc(O)cc1)[C@@H]1CCC2=Nc3ccccc3CN21	label 0
COc1ccc(COC(=O)[C@@H]2CCC3=Nc4ccccc4CN32)cc1	label 1
COc1ccc(CNC(=O)[C@@H]2CCC3=Nc4ccc(Br)cc4CN32)cc1	label 0
COc1ccc(NC(=O)[C@@H]2CCC3=Nc4ccccc4CN32)cc1	label 1
O=C(NCc1ccc(O)cc1)[C@@H]1CCC2=Nc3ccc(Br)cc3CN21	label 0
O=C(NCCCc1ccccc1)[C@H]1CCC2=Nc3ccc(Br)cc3CN21	label 1
O=C(NCc1ccc(O)cc1)[C@H]1CCC2=Nc3ccccc3CN21	label 1

---

# test summary: Metabolic stability in human liver microsomes assessed as parent compound remaining at 10 uM after 60 mins in absence of NADPH
# Format: ADME, microsome
# condition set: read-out: Stability
Below, each entry is listed alongside its reported remaining at 1 h, 10 µM.

molecule	remaining at 1 h, 10 µM [%]
O=C(NCCc1ccc(O)cc1)[C@@H]1CCC2=Nc3ccc(Br)cc3CN21	99.3
C[C@@H]([C@@H](O)c1ccc(O)cc1)N1CCC(Cc2ccccc2)CC1 [(S)-IFENPRODIL]	87.3
COc1ccc(COC(=O)[C@@H]2CCC3=Nc4ccccc4CN32)cc1	3.2
